tested on: IL-6-GFP PC-9; assay: cell viability (CCK-8 OD) relative to DMSO control (fraction of control); higher = more viable cells; details: compound concentration: 10 uM; treatment time: 48 h
endpoint-label: cell viability

compound: O=c1[nH]c(=O)n(C2CC(O)C(CO)O2)cc1F (centres undefined)
value-observed: 0.808
--
compound: COc1cccc2c1C(=O)c1c(O)c3c(c(O)c1C2=O)CC(O)(C(=O)CO)CC3OC1CC(N)C(OC2CCCCO2)C(C)O1 (centres undefined)
value-observed: 0.208
--
compound: COc1ccc2c(c1)nc(S(=O)Cc1ncc(C)c(OC)c1C)[n]2[Na] (centres undefined) [Omeprazole Sodium]
value-observed: 0.963
--
compound: O=C(O)CCC(=O)c1ccc(-c2ccccc2)cc1
value-observed: 1.08

====

Some compounds, each annotated with its measured cell viability.
tested on: IL-6-GFP PC-9GR; assay: cell viability (CCK-8 OD) relative to DMSO control (fraction of control); higher = more viable cells; conditions: compound concentration: 10 uM; treatment time: 48 h
endpoint-label: cell viability

compound: O=C(O)CCCN1CCC(OC(c2ccc(Cl)cc2)c2ccccn2)CC1.O=S(=O)(O)c1ccccc1 (stereo not given) [Bepotastine Besilate]
value-observed: 0.994

compound: CC(C)Cc1ccc(C(C)C(=O)OCc2ccccn2)cc1 (stereo not given)
value-observed: 1.43

compound: Nc1nc(=S)c2[nH]cnc2[nH]1
value-observed: 1.37

compound: COC(=O)NC(C(=O)N1CCCC1c1ncc(-c2ccc(-c3ccc(-c4cnc(C5CCCN5C(=O)C(NC(=O)OC)C(C)C)[nH]4)cc3)cc2)[nH]1)C(C)C (stereo not given)
value-observed: 1.41

compound: CCOc1ccc(NC(C)=O)cc1
value-observed: 1.24

compound: CC/C(=C(\c1ccccc1)c1ccc(OCCN(C)C)cc1)c1ccccc1.O=C(O)CC(O)(CC(=O)O)C(=O)O
value-observed: 1.22

compound: OCc1ccccc1OC1OC(CO)C(O)C(O)C1O (stereo not given)
value-observed: 1.49

compound: CCCCC1(COC(=O)CCC(=O)O)C(=O)N(c2ccccc2)N(c2ccccc2)C1=O
value-observed: 0.768

compound: COc1ccc2cc1Oc1ccc(cc1)CC1c3cc(c(OC)cc3CCN1C)Oc1c(OC)c(OC)cc3c1C(C2)N(C)CC3 (stereo not given)
value-observed: 1.15

compound: Nc1nc(N)c2nc(-c3ccccc3)c(N)nc2n1
value-observed: 0.591

compound: CC1CC2C3CCC4=CC(=O)C=CC4(C)C3(F)C(O)CC2(C)C1C(=O)CO (stereo not given)
value-observed: 0.815

compound: Cl.Nc1ccn(C2OC(CO)C(O)C2(F)F)c(=O)n1 (stereo not given) [Gemcitabine HCl]
value-observed: 0.596

compound: CC1CCC2(C(=O)OC3OC(COC4OC(CO)C(OC5OC(C)C(O)C(O)C5O)C(O)C4O)C(O)C(O)C3O)CCC3(C)C(=CCC4C5(C)CC(O)C(O)C(C)(CO)C5CCC43C)C2C1C (stereo not given) [Asiaticoside]
value-observed: 1.06

compound: CCC1/C=C(\C)CC(C)CC(OC)C2OC(O)(C(=O)C(=O)N3CCCCC3C(=O)OC(/C(C)=C/C3CCC(Cl)C(OC)C3)C(C)C(O)CC1=O)C(C)CC2OC (stereo not given)
value-observed: 1

compound: Nc1n[n+]([O-])c2ccccc2[n+]1[O-]
value-observed: 1.09
